Cited source: PubChem BioAssay (NCI)

- System: OVCAR-3 ovarian
- assay.info: NCI-60 one-dose screen, 48 h
- recorded.conditions: 10 µM
- Protocol: Growth inhibition of the OVCAR-3 human tumor cell line is measured as a screen for anti-cancer activity. Cells are grown in 96 well plates and exposed to the test compound for 48 hours. Compounds are tested at a single concentration, which is 10^-5 M for most compounds. The reported endpoint is percent growth (GI% or GIPRCNT), where numbers from 0 - 100% represent growth inhibition, and numbers from -100% - 0 represent cell death. For example, a value of 40 represents 60% growth inhibition. […]
This is part of a sample that, as a whole, favours compounds with a hit. Of some 83,000 tested, about 20% had one in any assay. Active and inactive are the calls of the source. How the source made its calls: active means growth percent below 10; inactive means the rest.
Response enum: active, inactive

The examples below pair each entry with its known result.
[
  {
    "compound": "CC1=C(N2CCOCC2)C(N2CCOCC2)=C(C)C(=O)C1=O",
    "assigned.category": "inactive"
  },
  {
    "compound": "CCCCCCCCCCCC[n+]1ccc(C(N)=O)cc1",
    "assigned.category": "inactive"
  },
  {
    "compound": "O=C1CC[C@@H]2CCCC[C@@H]2C1",
    "assigned.category": "inactive"
  },
  {
    "compound": "FC(F)(F)c1ccc(-c2cnc(Cl)nc2N2CCC3(CC2)OCCO3)cc1",
    "assigned.category": "inactive"
  },
  {
    "compound": "CC/C(=C(/c1ccc(OCCN(C)C)cc1)c1ccc(OC(=O)CCCCCCCCC(=O)c2c(C)[nH]c(/C=C3\\N=C(c4ccc[nH]4)C=C3OC)c2C)cc1)c1ccccc1",
    "assigned.category": "inactive"
  },
  {
    "compound": "CC(=O)c1nc2ccccc2n1CCN1CCN(C)CC1",
    "assigned.category": "active"
  }
]

-- ask Which outcome did this test record for the compound COc1ccc(-c2nc3sc(-c4ccccc4)c(-c4ccccc4)n3c2/C=C/C(=O)c2ccccn2)cc1 ?
-- reply inactive

-- ask Which outcome did this test record for the compound COc1cccc(Cn2c(-c3nonc3N)nc3ccccc32)c1 ?
-- reply active

-- ask Which outcome did this test record for the compound O=C(CNC(=O)OCc1ccccc1)NCC(=O)Oc1ccc([N+](=O)[O-])cc1 ?
-- reply inactive

-- ask Which outcome did this test record for the compound COc1cc(NC(=O)CSc2nc3ccccc3c(=O)n2CCc2ccccc2)cc(OC)c1OC ?
-- reply active

-- ask Which outcome did this test record for the compound COc1cc(C2CC(c3ccc(Nc4ccnc5cc(Cl)ccc45)cc3)=NN2c2ccc(Cl)cc2)cc(OC)c1OC (stereo not drawn) ?
-- reply inactive

-- ask Which outcome did this test record for the compound Cc1occc1-c1nnc(SCC(=O)c2ccc(NC(=O)CC(C)C)cc2)o1 ?
-- reply inactive

-- ask Which outcome did this test record for the compound CCN(CC)Cc1cc(Nc2ccnc3cc(Cl)ccc23)ccc1OC ?
-- reply inactive

-- ask Which outcome did this test record for the compound CCC(=O)N1C/C(=C/c2ccc(Cl)cc2)C(=O)/C(=C/c2ccc(Cl)cc2)C1 ?
-- reply active

-- ask Which outcome did this test record for the compound O=C(Nc1cccc(Br)c1)c1cc(=O)[nH]c2ccccc12 ?
-- reply inactive

-- ask Which outcome did this test record for the compound COc1ccc(/C=C/C(=O)Nc2ccc(-c3nc4ccc(F)cc4s3)cc2)cc1 ?
-- reply inactive

* * *

- Tested on: HCC-2998 colon
- assay.info: NCI-60 one-dose screen, 48 h (100 = growth as untreated, 0 = no growth, -100 = all killed)
- recorded.conditions: 10 µM
The panel holds about 83,000 compounds, 20% with a hit somewhere; the sample as a whole holds those more often.
endpoint.label: growth (%)
Reply with just the number (in %).

Solved entries:
[
  {
    "entry.smiles": "Cc1ccc(-c2n[nH]c(=O)c3noc(-c4ccc(C)cc4)c23)cc1",
    "value.unit": "%",
    "growth": 70.3
  },
  {
    "entry.smiles": "c1ccc2c(c1)oc1c3c(ccc12)NCCC3",
    "value.unit": "%",
    "growth": 97.2
  },
  {
    "entry.smiles": "Fc1ccc(-c2nnc(-c3c(-c4ccc(F)cc4)nc4ccccn34)o2)cc1",
    "value.unit": "%",
    "growth": 94.1
  },
  {
    "entry.smiles": "COc1ccc(-c2nc3sc(-c4ccccc4)c(-c4ccccc4)n3c2/C=C/C(=O)c2ccccn2)cc1",
    "value.unit": "%",
    "growth": 90.9
  },
  {
    "entry.smiles": "COc1cc(-c2nc(Nc3nc4ccccc4s3)[nH]c(=O)c2C#N)cc(OC)c1O",
    "value.unit": "%",
    "growth": 104
  },
  {
    "entry.smiles": "COc1ccc(/C=C2/CN(C(=O)c3ccc(C)cc3)C/C(=C\\c3ccc(OC)cc3)C2=O)cc1",
    "value.unit": "%",
    "growth": 71.3
  },
  {
    "entry.smiles": "Nc1nc(N)c(NC(=O)CNc2ccc(C(=O)O)cc2)c(N)n1",
    "value.unit": "%",
    "growth": 107
  },
  {
    "entry.smiles": "COc1cc(-c2cc(-c3cc4c([nH]c5ccccc54)c(-c4cc(OC)c(OC)c(OC)c4)n3)cc(-c3ccccc3)n2)cc(OC)c1OC",
    "value.unit": "%",
    "growth": 72.8
  }
]

Proceed to the following item.
The reported value for O=C(Nc1nc2ccc(F)cc2s1)c1cc(-c2ccc(F)cc2)n2nc(-c3ccccc3)cc2n1 in terms of growth is 99.8

* * *

- Test system: SK-MEL-28 melanoma
- assay.info: NCI-60 one-dose screen, 48 h (100 = growth as untreated, 0 = no growth, -100 = all killed)
- recorded.conditions: 10 µM
This is part of a sample that, as a whole, favours compounds with a hit. Of some 83,000 tested, about 20% had one in any assay.
Measured growth accompanies every entry in the list below.
Reply with just the number (in %).

[
  {
    "molecule": "CCCCN(CCCC)c1cc(C(=O)CCCCCN)c2ccccc2n1",
    "growth [%]": 118
  }
]

The reported value for COc1cc(CNc2ccccc2C(=O)N2CCN(C(=O)c3cc(-c4cc(OC)c(OC)c(OC)c4)n4nc(-c5ccccc5)cc4n3)CC2)cc(OC)c1OC in terms of growth is 53

The reported value for COc1cc2c(cc1OC)N(CCO)C1=C(C(=O)OC1)C2c1ccc(Cl)c(Cl)c1 (stereo not drawn) in terms of growth is 120

* * *

- Tested on: UACC-62 melanoma
- assay.info: NCI-60 one-dose screen, 48 h (100 = growth as untreated, 0 = no growth, -100 = all killed)
- recorded.conditions: 10 µM
Compounds without any hit were thinned out: in the full panel of roughly 83,000, 20% have a hit. Activity calls are given as the source filed them. The calls were made as follows: active = growth percent below 10; inactive = the rest.
Measured growth accompanies every entry in the list below.

[
  {
    "compound": "Cn1c(N)c(N=Nc2ccc(S(=O)(=O)Nc3nccs3)cc2)c(=O)n(C)c1=O",
    "target.or.system": "UACC-62 melanoma",
    "test.result": "106% (inactive)"
  }
]

The reported value for Clc1ccc(Nc2ccnc(NCCNc3ccnc4cc(Cl)ccc34)n2)cc1 in terms of growth is -79.5% (active)

The reported value for O=[N+]([O-])c1ccc(N/N=C/c2cccc3ccccc23)nc1 in terms of growth is 91.4% (inactive)

* * *

- Tested on: HT29 colon
- assay.info: NCI-60 one-dose screen, 48 h (100 = growth as untreated, 0 = no growth, -100 = all killed)
- recorded.conditions: 10 µM
This is part of a sample that, as a whole, favours compounds with a hit. Of some 83,000 tested, about 20% had one in any assay. Active and inactive are the calls of the source. The calls were made as follows: active = growth percent below 10; inactive = the rest.
endpoint.label: growth

[
  {
    "entry.smiles": "COc1ccc2c(c1)C(=O)c1c-2c(=O)n(CCCN(C)C)c2cc(OC)c(OC)cc12",
    "test.result": "60.6% (inactive)"
  },
  {
    "entry.smiles": "CSc1nc(=O)n(Cc2ccc(F)cc2)c(=O)n1Cc1ccc(C)cc1",
    "test.result": "101% (inactive)"
  },
  {
    "entry.smiles": "Nc1c(C(=O)Nc2ccccc2)sc2nc3c(cc12)CCCC3",
    "test.result": "10.1% (inactive)"
  }
]

Proceed to the following item.
The reported value for COc1ccc(Oc2nc(NC3CCCC3)nc(Sc3ccc(OC)cc3)n2)cc1 in terms of growth is 43.7% (inactive)

* * *

- System: NCI-H522 lung
- assay.info: NCI-60 one-dose screen, 48 h
- recorded.conditions: 10 µM
The panel holds about 83,000 compounds, 20% with a hit somewhere; the sample as a whole holds those more often. The source made the active and inactive calls. Rule for the calls: active = growth percent below 10; inactive = the rest.
Response enum: Y = active, N = inactive

The examples below pair each entry with its known result.
[
  {
    "compound": "C#Cc1ccc(-n2c(/C=C/c3ccc(C(F)(F)F)cc3)nc3ncccc3c2=O)cc1",
    "assigned.category": "Y"
  },
  {
    "compound": "CSc1nc(=O)n(Cc2ccc(Cl)cc2)c(=O)[nH]1",
    "assigned.category": "N"
  },
  {
    "compound": "CCc1ccc2c(c1)N(CCO)C1=C(C(=O)OC1)C2c1ccccc1 (configuration not stated)",
    "assigned.category": "Y"
  },
  {
    "compound": "COc1ccc2c(c1)[n+]([O-])c(C#N)c(NC(=O)c1ccco1)[n+]2[O-]",
    "assigned.category": "N"
  },
  {
    "compound": "CCN(CC)CCOc1nc2ccccc2c2c1-c1ccc(OC)cc1C2=O",
    "assigned.category": "Y"
  },
  {
    "compound": "Cc1cccc(NC2=C(C#N)C(=O)NC3(CCCC3)S2)c1",
    "assigned.category": "N"
  }
]

-- ask Which outcome did this test record for the compound COc1ccc(OC)c(/C=C/c2nc(SCc3ccccc3)n(-c3ccc(Cl)cc3)n2)c1 ?
-- reply N

-- ask Which outcome did this test record for the compound CCN(CCCCCCCCCCN1CC(=O)N(CCCCCCCCCCN(CC)Cc2ccccc2OC)CC1=O)Cc1ccccc1OC ?
-- reply Y

-- ask Which outcome did this test record for the compound O=C(Nc1cccc(-n2cc(-c3ccncc3)c(-c3ccc(O)c(Cl)c3)n2)c1)c1cccc(C(F)(F)F)c1 ?
-- reply N
